# System: HCC-2998 colon
# assay_info: NCI-60 one-dose screen, 48 h
# assay_context: 10 µM unless noted
This is part of a sample that, as a whole, favours compounds with a hit. Of some 83,000 tested, about 20% had one in any assay. Active and inactive are the calls of the source. How the source made its calls: active means growth percent below 10; inactive means the rest.
Bench note: report the call from Yes (active), No (inactive)

[ask] In this assay, the call recorded for "ClCCN(CCCl)c1ccc(-n2cnc3c(Cl)ncnc32)cc1" was what?
[reply] No

[ask] Look up the recorded call for "CN(CCCCN(C)CCOS(C)(=O)=O)CCOS(C)(=O)=O" in this test.
[reply] No

[ask] Query: recorded result category for "COC(=O)[C@H](C[C@H](Cc1ccccc1)NC(=O)c1csc([C@@H](C[C@H](C(C)C)N(C)C(=O)[C@@H](NC(=O)[C@H]2CCCCN2C)C(C)C)OC(C)=O)n1)NC(=O)OCc1ccccc1" in this test
[reply] No

[ask] How did this test come out for O=C(CC1(O)C(=O)Nc2ccccc21)c1ccc(C(=O)NCC2CCC3(CC2)OOC2(CCCCC2)OO3)cc1 (configuration not stated) ?
[reply] No

[ask] Name the outcome recorded for "COC(=O)[C@@H](C)C[C@H](Cc1ccccc1)NC(=O)c1nc([C@@H](C[C@H](C(C)C)N(C)C(=O)[C@@H](NC(=O)[C@H]2CCCN2C)C(C)C)OC(C)=O)sc1C" in the assay.
[reply] No

[ask] Dear colleague, could you share the recorded outcome for "c1cnc2[nH]cc(-c3csc(-c4cn(CCCCN5CCCCC5)c5ccccc45)n3)c2c1" when you have a moment?
[reply] No

[ask] Each compound tested received a call. Report the one for "C/C(=C\c1ccn(-c2ccccc2N)n1)[C@@H]1C[C@@H]2O[C@]2(C)CCC[C@H](C)[C@H](O)[C@@H](C)C(=O)C(C)(C)[C@@H](O)CC(=O)O1" .
[reply] Yes

====

# Tested on: SNB-19 CNS
# assay_info: NCI-60 one-dose screen, 48 h (100 = growth as untreated, 0 = no growth, -100 = all killed)
# assay_context: 10 µM unless noted
About 83,000 compounds went through this panel and 20% of them were active in at least one assay; those are over-represented in the sample as a whole.
Flag rule - growth less than 40% flags Condition met; the remaining entries get Condition not met.

[ask] hey, is growth for "C=COC(=O)CCN1CC1" lower than 40% or not?
[reply] Condition not met

[ask] Say whether its growth is strictly beneath 40%. Entry: "COc1ccc2nc(NC(=O)COc3cc(/C=C\c4cc(OC)c(OC)c(OC)c4)ccc3OC)sc2c1"
[reply] Condition met

[ask] Item O=C(CC1(O)C(=O)N(Cc2ccccc2)c2ccc(Cl)cc21)c1ccc(C(=O)NCC2CCC3(CC2)OOC2(CCCCC2)OO3)cc1 (stereo not given) : growth beneath 40%, strictly?
[reply] Condition met

[ask] Report whether reported growth is lower than 40% (strictly) for "CN(C)CCCOc1ccc2c(c1)c(C(=O)C(=O)NCCO)cn2Cc1ccccc1"
[reply] Condition not met

[ask] Given "COC(=O)[C@@H](C)C[C@H](Cc1ccc(F)cc1)NC(=O)c1csc([C@@H](C[C@H](C(C)C)N(C)C(=O)[C@@H](NC(=O)[C@H]2CCCCN2C)C2CC2)OC(C)=O)n1" , is recorded growth strictly lower than 40%?
[reply] Condition met

====

# System: UACC-62 melanoma
# assay_info: NCI-60 one-dose screen, 48 h
# assay_context: 10 µM unless noted
The panel holds about 83,000 compounds, 20% with a hit somewhere; the sample as a whole holds those more often. Active and inactive are the calls of the source. How the source made its calls: active means growth percent below 10; inactive means the rest.
Permitted responses: 1 for active, 0 for inactive

[ask] Hi, sorry to bother you, what did the test record for CC(=O)C(c1c(O)c2ccccc2oc1=O)c1cc(=O)oc2c1ccc1ccccc12 (centres undefined) ?
[reply] 0

[ask] Record lookup: outcome of this test for "O=C(CCCC1CCCCC1)OCC(Cl)(Cl)Cl" ?
[reply] 0

[ask] Call for entry "CC1=C(CCCNS(C)(=O)=O)C2=C(C)C3(CC3)[C@@](C)(O)C(=O)C2=C1" :
[reply] 1

[ask] For "COc1ccc(S(=O)(=O)Nc2c(/C=C\c3cc(OC)c(OC)c(OC)c3)ccc(OC)c2O)cc1OC" , which call appears in the assay record?
[reply] 0

[ask] Each compound tested received a call. Report the one for "C/C(=C\c1ccn(-c2ccc(N)cc2)n1)[C@@H]1C[C@@H]2O[C@]2(C)CCC[C@H](C)[C@H](O)[C@@H](C)C(=O)C(C)(C)[C@@H](O)CC(=O)O1" .
[reply] 0

[ask] Hi team, can someone confirm the assay call for CN1CC(CNC(=O)OCc2ccccc2)CC2c3cccc4c3c(cn4C)CC21 (centres undefined) ?
[reply] 1

[ask] Called result for "CCn1c2ccccc2c2cc(C(=O)c3ccc(C)c4ccccc34)ccc21"
[reply] 1

[ask] Test call, this compound: "Cc1cc(C)c(CBr)c(C)c1"
[reply] 0

[ask] Call for entry "COc1ccc2nc(NC(=O)COc3cc(/C=C\c4cc(OC)c(OC)c(OC)c4)ccc3OC)sc2c1" :
[reply] 0

====

# Test system: HT29 colon
# assay_info: NCI-60 one-dose screen, 48 h
# assay_context: 10 µM unless noted
Compounds without any hit were thinned out: in the full panel of roughly 83,000, 20% have a hit. Activity calls are given as the source filed them. How the source made its calls: active means growth percent below 10; inactive means the rest.
Please state which outcome applies, choosing from True for active, False for inactive

[ask] Returns: the outcome recorded for "COc1ccc2c(c1)c(-c1nc(-c3c[nH]c4ncccc34)cs1)cn2CCN1CCOCC1" in this assay.
[reply] False

[ask] Please state the recorded outcome for this molecule: CCCCCSC1C2C(=O)C(Br)=CC13CCNc1c(O)c4c5c(c13)=[N+]2CCC=5C=N4 (centres undefined)
[reply] True

[ask] Given "CCCCCC1(CCBr)C(=O)NC(=O)NC1=O" , state the outcome it received in this test.
[reply] False

[ask] Per the assay record, what outcome was assigned to "NC(=Nc1ccccc1)N[N+](=O)[O-]" ?
[reply] False

[ask] Returns: the outcome recorded for "COC(=O)[C@@H](C)C[C@H](Cc1ccccc1)NC(=O)c1nc([C@@H](C[C@H](C(C)C)N(C)C(=O)[C@@H](NC(=O)[C@H]2CC(=O)CCN2C)C(C)C)OC(C)=O)sc1C(C)C" in this assay.
[reply] True

[ask] I would be grateful if you could indicate the recorded call for "CN(C)C(=O)Oc1ccccc1" .
[reply] False

[ask] Please state the recorded outcome for this molecule: "CC(C)=CCC[C@H](C(=O)O)[C@@H]1CC[C@]2(C)C3=C(CC[C@@]12C)[C@@]1(C)CC[C@H](O)C(C)(C)[C@@H]1CC3"
[reply] False

[ask] Each molecule tested received a call. Report the one for "C[Se]C(=O)c1ccccc1OC(C)=O" .
[reply] False

[ask] Short answer needed: outcome of this test for "Clc1cccc(NCOOC2(OOCNc3cccc(Cl)c3)CCCCCC2)c1" ?
[reply] False

====

Would you mind telling me the reported growth of each entry?
# System: SK-OV-3 ovarian
# assay_info: NCI-60 one-dose screen, 48 h (100 = growth as untreated, 0 = no growth, -100 = all killed)
# assay_context: 10 µM unless noted
This is part of a sample that, as a whole, favours compounds with a hit. Of some 83,000 tested, about 20% had one in any assay.
Give just the numeric value; % need not be written.

[ask] Any idea what its growth is? The molecule is "CCCCCC1(CCBr)C(=O)NC(=O)NC1=O"
[reply] 99.1

[ask] Please give the measured growth for this molecule: "COC(=O)[C@@H](C)C[C@H](Cc1ccccc1)NC(=O)c1csc([C@@H](C[C@H](C(C)C)N(C)C(=O)[C@@H](NC(=O)[C@H]2CCCCN2C)C(C(F)(F)F)C(F)(F)F)OC(C)=O)n1"
[reply] 16.4

[ask] Any idea what growth was measured for CC12CCC=CC1CCC1C2CCC2(C)C(c3ccc(=O)oc3)CCC12O (stereo not drawn) ?
[reply] -11

[ask] Please look up its growth: O=C1CCC2(O)[C@@H]3Cc4ccc(O)c5c4[C@]2(CCN3Cc2ccoc2)C1O5 (stereo partly drawn)
[reply] 105

[ask] Endpoint output: growth of O=C(O)C1C(C(=O)O)C2(Cl)C(Cl)=C(Cl)C1(Cl)C2(Cl)Cl.[Hg] (stereo not drawn) . Value?
[reply] 120

[ask] // query growth value for entry CCN(CC)c1ccc2c(c1)OC(N)=C(C#N)C2c1cc(OC)c2c(c1)OCO2 (stereo not drawn)
[reply] 9.72

[ask] Fill in: growth of "CCc1ccccc1[C@@H]1C[C@]2(C)CCO[C@@H]2OO1" is ___
[reply] 107

[ask] What value of growth has been reported for the following molecule? "CC[C@H](C)[C@H](NC(=O)N[C@@H](C)c1ccccc1)C(=O)N(C)[C@H](C[C@@H](OC(C)=O)c1nc(C(=O)N[C@@H](Cc2ccccc2)C[C@H](C)C(=O)OC)cs1)C(C)C"
[reply] 36.1
